biological target: human BACE1 (Homo sapiens, UniProt P56817); experiment: Fluorescent kinetic assay, human BACE1 (FRET peptide substrate WABC-6); type: biochemical; settings: fluorescent kinetic assay, 25 μM substrate WABC-6, pH 4.5, room temperature; read-out: IC50 (μM) BACE 1;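 also: fluorescence monitored at excitation 320 nm and emission 420 nm over 30 min, with the substrate cleavage rate taken as the linear slope of the signal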
Sequence (P56817 46-501): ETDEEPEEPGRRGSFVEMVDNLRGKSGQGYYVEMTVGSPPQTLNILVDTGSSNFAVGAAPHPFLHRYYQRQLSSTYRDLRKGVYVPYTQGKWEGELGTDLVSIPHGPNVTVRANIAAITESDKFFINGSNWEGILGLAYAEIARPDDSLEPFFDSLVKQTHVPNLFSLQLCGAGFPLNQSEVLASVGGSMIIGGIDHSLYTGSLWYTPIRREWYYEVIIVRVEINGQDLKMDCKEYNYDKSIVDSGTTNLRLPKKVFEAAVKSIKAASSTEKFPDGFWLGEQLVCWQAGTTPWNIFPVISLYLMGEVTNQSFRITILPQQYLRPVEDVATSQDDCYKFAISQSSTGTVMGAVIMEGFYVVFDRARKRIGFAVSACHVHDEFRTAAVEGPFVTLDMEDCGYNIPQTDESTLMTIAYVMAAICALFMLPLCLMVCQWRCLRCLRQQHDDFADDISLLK
measured-property: IC50

Data request: // Input: N/C(=N\C(=O)Cn1c(-c2ccccc2)ccc1C12CC3CC(CC(C3)C1)C2)NCCCCO [Example 400] . Output its IC50 only.
Data returned: 0.11 to 1 µM

Data request: // Input: CC1CCN(C(=O)c2ccc(-c3ccc(-c4ccccc4)n3CC(=O)N=C(N)N)cc2)CC1 [Example 170] . Output its IC50 only.
Data returned: 1.1 to 5 µM

Data request: // Input: CC(=O)c1ccc(Oc2ccc(-c3ccc(-c4ccccc4)n3CC(=O)N=C(N)NCc3ccc(F)c(F)c3F)cc2)cc1 [Example 338] . Output its IC50 only.
Data returned: 1.1 to 5 µM

Data request: // Input: N#CCCCNC(=N)NC(=O)Cn1c(-c2ccccc2)ccc1C12CC3CC(CC(C3)C1)C2 [Example 393] . Output its IC50 only.
Data returned: 0.11 to 1 µM

Data request: // Input: CC(O)CNC(N)=NC(=O)Cn1c(-c2ccccc2)ccc1C12CC3CC(CC(C3)C1)C2 (centres unmarked) [Example 404] . Output its IC50 only.
Data returned: 0.11 to 1 µM
